target: NLRP3 (Homo sapiens, UniProt Q96P20); construct: host or cells: THP-1 cells differentiated with PMA; assay: IL-1β Secretion Assay (NLRP3-dependent IL1β secretion in THP1 cells); assay type: cell-based; conditions: PMA-differentiated THP-1 cells; compounds incubated 20 h; 2.5 μM Nigericin 3 h; HTRF IL-1β readout; read-out: IC50 IL-1β Inhibition
Sequence (Q96P20 whole entry): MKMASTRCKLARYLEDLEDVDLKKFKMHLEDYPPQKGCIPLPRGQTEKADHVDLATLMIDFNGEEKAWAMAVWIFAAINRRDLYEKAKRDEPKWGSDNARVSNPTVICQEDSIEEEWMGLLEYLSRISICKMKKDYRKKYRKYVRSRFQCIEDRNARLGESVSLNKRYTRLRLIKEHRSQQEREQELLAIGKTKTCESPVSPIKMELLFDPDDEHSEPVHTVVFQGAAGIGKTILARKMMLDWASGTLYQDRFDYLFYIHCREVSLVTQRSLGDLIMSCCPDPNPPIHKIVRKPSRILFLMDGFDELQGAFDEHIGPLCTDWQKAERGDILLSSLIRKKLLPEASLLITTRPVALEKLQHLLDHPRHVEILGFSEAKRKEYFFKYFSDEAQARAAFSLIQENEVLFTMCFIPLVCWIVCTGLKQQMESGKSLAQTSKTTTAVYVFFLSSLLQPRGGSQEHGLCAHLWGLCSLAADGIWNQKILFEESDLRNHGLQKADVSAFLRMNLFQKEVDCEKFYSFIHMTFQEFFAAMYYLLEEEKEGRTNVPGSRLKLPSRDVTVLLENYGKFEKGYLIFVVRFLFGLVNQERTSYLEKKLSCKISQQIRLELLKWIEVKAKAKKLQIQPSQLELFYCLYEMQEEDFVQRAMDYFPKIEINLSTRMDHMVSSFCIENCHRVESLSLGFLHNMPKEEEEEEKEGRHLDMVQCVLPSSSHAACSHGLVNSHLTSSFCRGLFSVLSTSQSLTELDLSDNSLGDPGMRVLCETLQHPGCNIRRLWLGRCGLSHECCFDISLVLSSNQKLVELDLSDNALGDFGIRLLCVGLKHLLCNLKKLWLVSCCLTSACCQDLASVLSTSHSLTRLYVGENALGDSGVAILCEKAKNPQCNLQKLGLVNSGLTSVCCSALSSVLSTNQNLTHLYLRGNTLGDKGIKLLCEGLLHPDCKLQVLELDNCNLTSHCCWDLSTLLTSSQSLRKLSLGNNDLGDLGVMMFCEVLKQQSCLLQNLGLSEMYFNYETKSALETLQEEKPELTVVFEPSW
reported endpoint: IC50

Q: May I ask what IC50 has been recorded for OCCN1CCC[C@@H](Nc2nnc(-c3ccc(OC(F)F)cc3OC(F)(F)F)c3cncn23)C1 ?
Ans: 1 to 10 nM

Q: Sample CCN1CCC[C@@H](Nc2nnc(-c3ccc(C(F)(F)F)cc3OCF)c3cccn23)C1 — what was its IC50?
Ans: < 1 nM

Q: Dear colleague, I am looking for the recorded IC50 of the following compound: CC(Nc1nnc(-c2ccc(C(F)(F)F)cc2OC(F)(F)F)c2cccn12)c1cccc(O)c1 (stereo not shown)
Ans: 1 to 10 nM

Q: Find the recorded IC50 belonging to OCCN1CCC[C@@H](Nc2nnc(-c3ccc(C(F)(F)F)cc3OC(F)(F)F)c3cncn23)C1 and report it.
Ans: < 1 nM

Q: Looking for the measured IC50 of CCN1CCC[C@@H](Nc2nnc(-c3ccc(C(F)(F)F)cc3Cl)c3cc(C)nn23)C1 , can you help?
Ans: 1 to 10 nM

Q: Form field: reported IC50 of C[C@]1(O)C[C@@H](Nc2nnc(-c3ccc(Br)cc3OC(F)F)c3cncn23)C1
Ans: 1 to 10 nM

Q: Fill blank: measured IC50 of the compound Cc1cc2c(-c3ccc(C4CC4)cc3C(F)F)nnc(N[C@@H]3CCCN(C)C3)n2n1 is ____.
Ans: 1 to 10 nM

Q: Can you look up the measured IC50 of CCN1C[C@H](F)C[C@@H](Nc2nnc(-c3ccc(C(F)(F)F)cc3C(F)(F)F)c3c(F)ccn23)C1 for me?
Ans: 1 to 10 nM

Q: Suppose we examine the compound Cc1ccc(-c2nnc(N[C@H]3C[C@@H](CO)C3)n3cncc23)c(OC(F)F)c1 ; what IC50 value has been reported?
Ans: 10 to 100 nM

Q: What measured IC50 goes with CN1CCC[C@@H](CNc2nnc(-c3ccc(C(F)(F)F)cc3CC(F)(F)F)c3cccn23)C1 ?
Ans: 1 to 10 nM

Q: IC50 lookup needed for COc1ccc(-c2nnc(N[C@@H]3CCCN(C)C3)n3cc(C)cc23)c(OC(F)F)c1 , thanks.
Ans: 1 to 10 nM

Q: May I ask what IC50 has been recorded for CCN1CCC[C@@H](Nc2nnc(-c3ccc(Cl)cc3)c3cc(C)nn23)C1 ?
Ans: 1 to 10 nM

Q: Please give the measured IC50 for this compound: Cc1ccc(-c2nnc(NC3CCNC3=O)n3cccc23)c(CC(F)(F)F)c1 (stereo not shown)
Ans: 1 to 10 nM

Q: // lookup IC50 for C[C@@H](O)CNc1nnc(-c2ccc(C(F)(F)F)cc2OC(F)F)c2cccn12
Ans: 1 to 10 nM

Q: Dear colleague, I am looking for the recorded IC50 of the following compound: Cc1cc2c(-c3ccc(Cl)cc3C(F)F)nnc(N[C@@H]3CCCN(C)C3)n2n1
Ans: 10 to 100 nM

Q: If you can, please state the reported IC50 value of C[C@]1(CO)C[C@@H](Nc2nnc(-c3ccc(C(F)(F)F)cc3OC(F)(F)F)c3cncn23)C1 .
Ans: 1 to 10 nM

###

target: NLRP3 (Homo sapiens); construct: host or cells: THP-1 cells differentiated with PMA; test: IL-1β Secretion Assay (NLRP3-dependent IL1β secretion in THP1 cells); assay type: cell-based; conditions: PMA-differentiated THP-1 cells; compounds incubated 20 h; 2.5 μM Nigericin 3 h; HTRF IL-1β readout; read-out: IC50 IL-1β Inhibition
pIC50: −log10 of the molar value.
reported endpoint: pIC50

Q: Kindly state the measured pIC50 obtained for COc1ccc(-c2nnc(NC(C)c3cccnc3)n3cncc23)c(OC(F)(F)F)c1 (centres unmarked) [Compound 232] with NLRP3 (Homo sapiens).
Ans: 6.52 to 7.00

Q: Observed pIC50 on NLRP3 (Homo sapiens) for CCN1CCC[C@@H](Nc2nnc(-c3ccc(C#N)cc3OC(F)F)c3cc(C)nn23)C1 [Compound 378] , please.
Ans: 8.00 to 9.00

Q: Recall the recorded pIC50 for OCCN1CCC[C@@H](Nc2nnc(-c3ccc(Br)cc3OC(F)F)c3cncn23)C1 [Compound 198] with NLRP3 (Homo sapiens) and state it.
Ans: > 9.00

Q: Request - read-out pIC50 | tested on NLRP3 (Homo sapiens) | compound OC[C@H]1C[C@@H](Nc2nnc(-c3ccc(C(F)(F)F)cc3CC(F)(F)F)c3cncn23)C1 [Compound 264]
Ans: > 9.00

Q: API: value(readout= pIC50, system= NLRP3 (Homo sapiens), query= O=C1NCCCC1Nc1nnc(-c2ccc(C(F)(F)F)cc2C(F)(F)F)c2cncn12 (centres unmarked) [Compound 276] )
Ans: 7.00 to 8.00

Q: Please provide the recorded pIC50 for COc1ccc(-c2nnc(N[C@@H]3CCOC3)n3cccc23)c(OC(F)(F)F)c1 [Compound 68] , tested on NLRP3 (Homo sapiens).
Ans: 7.00 to 8.00

Q: Could you share what pIC50 was measured for OC[C@H]1C[C@@H](Nc2nnc(-c3ccc(C(F)(F)F)cc3OC(F)(F)F)c3cccn23)C1 [Compound 141] , tested on NLRP3 (Homo sapiens)?
Ans: 8.00 to 9.00

Q: Checklist item: pIC50 tested on NLRP3 (Homo sapiens), entry COc1ccc(-c2nnc(N[C@@H]3CCCC[C@H]3O)n3cncc23)c(C(F)(F)C(F)(F)F)c1 [Compound 316] , value?
Ans: 7.00 to 8.00

###

molecular target: NLRP3 (Homo sapiens); experiment: IL-1β Secretion Assay (NLRP3-dependent IL1β secretion in THP1 cells); details: PMA-differentiated THP-1 cells; compounds incubated 20 h; 2.5 μM Nigericin 3 h; HTRF IL-1β readout; read-out: IC50 IL-1β Inhibition
pIC50: −log10 of the molar value.
Give measured pIC50 for each item. Keep answers brief.

Q: Please report the recorded pIC50 for CCN1CCC[C@@H](Nc2nnc(-c3ccc(OC)cc3OC(F)F)c3cccn23)C1 .
Ans: > 9.00

Q: Need pIC50, item COc1ccc(-c2nnc(NC3CCNC3=O)n3ccc(F)c23)c(C(F)(F)F)c1 (stereo not shown)
Ans: 7.00 to 8.00

Q: I have this compound here, COc1ccc(-c2nnc(N[C@@H]3CCCN(CCO)C3)n3cncc23)c(OC(F)F)c1 , and I need its recorded pIC50.
Ans: 8.00 to 9.00

Q: Quick one: pIC50 of COc1ccc(-c2nnc(N[C@@H]3C[C@@H](F)CN(C)C3)n3cncc23)c(OC(F)F)c1 ?
Ans: 8.00 to 9.00

Q: Please report the recorded pIC50 for Cc1cc2c(-c3ccc(C4CC4)cc3C(F)F)nnc(N[C@@H]3CCCN(C)C3)n2c1 .
Ans: 8.00 to 9.00

Q: Give its pIC50 value. Item: Cc1cc2c(-c3ccc(C(F)(F)F)cc3OC(F)(F)F)nnc(N[C@@H]3CCCC[C@H]3O)n2n1
Ans: 7.00 to 8.00

Q: # get_value(readout='pIC50', item= COc1ccc(-c2nnc(N[C@@H]3CCCC[C@H]3O)n3nc(C)cc23)c(CC(F)(F)F)c1 )
Ans: 8.00 to 9.00

Q: Entry CN1CCCC(Nc2nnc(-c3ccc(C(F)(F)F)cc3C(F)(F)F)c3cncn23)C1=O (stereo not shown) : reported pIC50 = ?
Ans: 8.00 to 9.00

Q: I am curious: what pIC50 value has been reported for O=C1NCCC1Nc1nnc(-c2ccc(C(F)(F)F)cc2C2CC2)c2cncn12 (stereo not shown) ?
Ans: 8.00 to 9.00

Q: Which pIC50 is reported for this compound? OCCN1CCC[C@@H](Nc2nnc(-c3ccc(C(F)(F)F)cc3CC(F)(F)F)c3cncn23)C1
Ans: > 9.00

Q: Which pIC50 value is on record for O=C1NCCC1Nc1nnc(-c2ccc(C(F)(F)F)cc2OC(F)(F)F)c2ccnn12 (stereo not shown) ?
Ans: 7.00 to 8.00

Q: Requested field: pIC50. Item: COc1ccc(-c2nnc(N[C@H]3C[C@@H](CO)C3)n3cncc23)c(OC(F)(F)F)c1
Ans: 8.00 to 9.00

Q: May I ask what pIC50 has been recorded for O=C1NCCC1Nc1nnc(-c2ccc(OC(F)F)cc2OC(F)(F)F)c2cccn12 (stereo not shown) ?
Ans: 8.00 to 9.00

Q: Query (compound): OCCN1CCC[C@@H](Nc2nnc(-c3ccc(C(F)(F)F)cc3F)c3cccn23)C1 ; field requested: pIC50
Ans: 7.00 to 8.00

Q: Please give the measured pIC50 for this compound: CCOc1ccc(-c2nnc(N[C@@H]3CCCN(C)C3)n3cccc23)c(OC(F)(F)F)c1
Ans: 7.00 to 8.00

Q: Suppose we examine the compound CCN1CCC[C@@H](Nc2nnc(-c3ccc(OC)cc3OC(F)(F)F)c3cccn23)C1 ; what pIC50 value has been reported?
Ans: > 9.00
